// reported growth inhibition for each item listed
experiment: NCI Yeast Anticancer Drug Screen. Data for the mlh1 strain (AID 171);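 also: 0% = growth of vehicle-treated control cultures of the same strain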; conditions: S. cerevisiae mlh1 strain growth inhibition; at 1.2 µM; hits give high values
About 79,000 compounds went through this panel and 15% of them were active in at least one assay; those are over-represented in the sample as a whole.
Reported metric: growth inhibition (%)

Molecule | Result number
O=C(CCc1ccccc1)ON1C(=S)C(c2ccccc2)(c2ccccc2)N=C1Sc1ccccc1 | 44
O=S(=O)(c1cc(Cl)ccc1O)c1cc(Cl)ccc1O | 21
CCC(=O)Oc1ccc(/C=N/NC(N)=S)nc1 | -8
S=C(S)NCC1CCC(CNC(=S)S)CC1 (configuration not stated) | -4
c1ccc(N2N=C3N(c4ccccc4)C2N3c2ccccc2)cc1 | -28
NNC(=S)Nc1cccc2ccccc12 | -37
S=c1nc(Cl)cc2[nH]c(Cl)cn12 | 8
COc1cc(CNc2ccc(C(C)C)cc2)cc(OC)c1OC | -2
CN(C)CC1CCCc2ccccc2C1=O (configuration not stated) | 23
ClCCn1c(CCl)nc2ccc(Cl)cc21 | -30
O=C1CSC(=S)N1Cc1ccc(Cl)cc1Cl | -13
CN(C)Cc1cccc(CN(C)C)[c]1[Sn]([Br])([c]1ccccc1)[c]1ccccc1 | -2

Reference source: PubChem BioAssay (NCI)
